compounds and their reported GI50
- Tested on: SNB-19
- assay text: NCI tumour cell line growth inhibition, 48 h
Calls of active or inactive are those of the source. No stated cut-off is given here; in the data, active = GI50 up to about 1.1 µM and inactive = higher.

Consider the worked cases shown below.
CCCC1NC(C#N)(C#N)C(CCC)NC1(C#N)C#N (stereo not given) ... 40.9 µM (inactive)
CCCCN(CCCC)c1c([N+](=O)[O-])c(=O)nc2ccccn12 ... 72.9 µM (inactive)
C/C(=N\N)C(CN(C)C)C(c1ccccc1)c1c(O)c2ccccc2oc1=O (stereo not given) ... > 100 µM (inactive)

Given item O=C(O)C1=NN=C(C(=O)O)NN1 , the value recorded as its GI50 is > 100 µM (inactive)

Given item CCOC(=O)Cn1c(=O)ccn(COCCO)c1=O , the value recorded as its GI50 is > 100 µM (inactive)

Given item C\C(=N/N=C1/C(=C\N(C)C)C(=O)NC(=O)N1C)c1ccc(Cl)cc1 , the value recorded as its GI50 is > 100 µM (inactive)

Given item COc1cc(/C=C2/C[C@H]3[C@@H]4CC=C5C[C@@H](OC(C)=O)CC[C@]5(C)[C@H]4CC[C@]3(C)NC2=O)cc(OC)c1OC , the value recorded as its GI50 is 15.9 µM (inactive)

Given item COc1c(C)c2c(c3c1c(=O)c1ccccc1n3C)C=CC(C)(C)O2 , the value recorded as its GI50 is 41.3 µM (inactive)

Given item CC(=O)OCC1OC(N2C(C)=C(C(C)=O)C(c3ccco3)C(C#N)=C2S)C(OC(C)=O)C(OC(C)=O)C1OC(C)=O (stereo not given) , the value recorded as its GI50 is > 100 µM (inactive)

Given item CC1NC(=O)C2Cc3ccc(O)c(c3)Oc3ccc(cc3)C(O)C(C(=O)N2C)N(C)C(=O)C(C)NC(=O)C(Cc2ccc(O)cc2)N(C)C(=O)C(C)NC1=O (stereo not given) , the value recorded as its GI50 is 13.8 µM (inactive)
